Every entry's value here was drawn from ChEMBL document CHEMBL1132587.

As shown below, each of these compounds has a reported pEC50 value.
Target: 5-hydroxytryptamine receptor 1D (Homo sapiens)
Sequence (P28221 whole entry): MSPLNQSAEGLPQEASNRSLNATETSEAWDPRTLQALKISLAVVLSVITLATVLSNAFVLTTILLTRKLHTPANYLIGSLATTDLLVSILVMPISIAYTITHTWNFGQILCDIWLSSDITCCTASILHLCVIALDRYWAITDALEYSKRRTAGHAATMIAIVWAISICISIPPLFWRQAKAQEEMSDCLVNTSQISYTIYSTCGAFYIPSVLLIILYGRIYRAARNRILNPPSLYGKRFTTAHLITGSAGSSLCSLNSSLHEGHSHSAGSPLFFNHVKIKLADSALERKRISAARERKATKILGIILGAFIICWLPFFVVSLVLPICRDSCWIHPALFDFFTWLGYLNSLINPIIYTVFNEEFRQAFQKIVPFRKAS
Assay: Stimulation of [35S]GTP-gamma-S, binding in CHO cells expressing the 5-hydroxytryptamine 1D receptor
To interpret pEC50, take it as minus log10 of a concentration measured in moles per litre.

Answered examples (6):
INSERT INTO assay_data (molecular_string, measured_result) VALUES
  ('CN(Cc1ccccc1)C[C@@H]1CCN(CCc2c[nH]c3ccc(Cn4cncn4)cc23)C1', 7.96),
  ('CN(C)CCc1c[nH]c2ccc(-n3cnnc3)cc12', 9.40),
  ('C[C@@H](c1ccccc1)N(C)C[C@@H]1CCN(CCc2c[nH]c3ccc(Cn4cncn4)cc23)C1', 8.35),
  ('CN(Cc1ccccc1)C[C@@H]1CCCN1CCc1c[nH]c2ccc(-n3cnnc3)cc12', 8.52),
  ('CC(C)(NC[C@@H]1CCN(CCc2c[nH]c3ccc(-n4cnnc4)cc23)C1)c1ccccc1', 9.52),
  ('C[C@@H](NC[C@@H]1CCN(CCc2c[nH]c3ccc(-n4cnnc4)cc23)C1)c1ccccc1', 8.68);

Please report the recorded pEC50 for `CNS(=O)(=O)Cc1ccc2[nH]cc(CCN3CC[C@@H](CNCc4ccccc4)C3)c2c1` .
8.46

Item: `c1ccc(CO[C@H]2CCN(CCc3c[nH]c4ccc(-n5cnnc5)cc34)C2)cc1`
7.51

Repeat with `c1cc2[nH]cc(CCN3CCCC3)c2cc1-n1cnnc1`
8.64

Try this compound too: `c1cc(CNC[C@@H]2CCN(CCc3c[nH]c4ccc(-n5cnnc5)cc34)C2)co1`
8.89

Also check `CC(=O)Nc1ccc(CNC[C@@H]2CCN(CCc3c[nH]c4ccc(-n5cnnc5)cc34)C2)cc1`
8.00

Then this compound: `c1ccc(CCNC[C@@H]2CCN(CCc3c[nH]c4ccc(-n5cnnc5)cc34)C2)cc1`
8.21

Field entry: `c1ccc(CNC[C@@H]2CCN(CCc3c[nH]c4ccc(-n5cnnc5)cc34)C2)cc1`
9.10

Try this compound next: `C[C@H](NC[C@@H]1CCN(CCc2c[nH]c3ccc(Cn4cncn4)cc23)C1)c1ccccc1`
8.52

Input `O[C@@H]1CCN(CCc2c[nH]c3ccc(-n4cnnc4)cc23)C1`
8.11

Queued: `c1ccc(CNC[C@@H]2CCN(CCc3c[nH]c4ccc(Cn5cncn5)cc34)C2)cc1`
8.31
